- Condition Set: in methanol, 302.77 K
Property Measured: solubility (mole fraction)

* O=C1CCC(c2ccc(Cl)c(Cl)c2)c2ccccc21 (stereo unspecified) | 0.00293

---

- Condition Set: in isopropanol, 278.12 K
Property Measured: solubility (mole fraction)

* O=C1CCC(c2ccc(Cl)c(Cl)c2)c2ccccc21 (stereo unspecified) | 0.000955

---

- Condition Set: in DMF, 298.17 K
Property Measured: solubility (mole fraction)

• O=C1CCC(c2ccc(Cl)c(Cl)c2)c2ccccc21 (stereo unspecified) = 0.0717

---

- Condition Set: in methanol, 277.93 K
Property Measured: solubility (mole fraction)

* O=C1CCC(c2ccc(Cl)c(Cl)c2)c2ccccc21 (stereo unspecified) | 0.00087

---

- Condition Set: in THF, 298.24 K
Property Measured: solubility (mole fraction)

* O=C1CCC(c2ccc(Cl)c(Cl)c2)c2ccccc21 (stereo unspecified) | 0.124
